Record: compiled pKi on Prothrombin (Homo sapiens, UniProt P00734) from multiple reports.
pKi: −log10 of the molar value.
property: pKi

Worked cases, pKi given:
[[record]]
compound = "COc1ccc(-n2nc(C(F)(F)F)cc2C(=O)Nc2ccc(-c3ccccc3S(C)(=O)=O)cc2F)c(CN)c1"
property = "pKi"
measured_number = 5.19

[[record]]
compound = "Cc1cnc(NCCc2ccccc2)c(=O)n1CC(=O)NCc1ccc2cc[nH]c2c1"
property = "pKi"
measured_number = 6.08

[[record]]
compound = "N=C(N)c1cccc(N2CCCCN(C3CCN(S(=O)(=O)c4ccc(N)cc4)CC3)C2=O)c1"
property = "pKi"
measured_number = 5.20


(I) CN1C(=O)C(OCc2ccc(C(=N)N)cc2)Oc2cc(C(=O)N(CC(=O)O)c3ccccc3)ccc21 (centres undefined)
(II) N=C(N)c1cccc(Cn2c(C(=O)NCc3cc(Cl)cc(Cl)c3)cc3c(O)cccc32)c1
Lower value of pKi belongs to which: I or II ? Answer with the label corresponding to your selection.
I
(I: 5.75, II: 6.11)

====

Collected from the literature: Ki of various compounds toward Prothrombin (Homo sapiens, UniProt P00734).
property: Ki (µM)

[[record]]
compound = "Cc1nc(-c2ccccc2)ccc1C(=O)N[C@@H](CCCCN)B1O[C@@H]2CC3CC(C3(C)C)[C@]2(C)O1 (stereo partly specified)"
assay_target = "Prothrombin (Homo sapiens, UniProt P00734)"
property = "Ki"
display_unit = "µM"
measured_number = 0.58

[[record]]
compound = "CNc1nc(Cl)c2n(c1=O)[C@H](C(=O)NCc1ccc(C(=N)N)cc1)CC2(C)C"
assay_target = "Prothrombin (Homo sapiens, UniProt P00734)"
property = "Ki"
display_unit = "µM"
measured_number = 0.23

[[record]]
compound = "Cc1cc(-c2ccccc2C(F)(F)F)ccc1C(=O)N[C@@H](CCCN=C(N)N)B1O[C@@H]2CC3CC(C3(C)C)[C@]2(C)O1 (stereo partly specified)"
assay_target = "Prothrombin (Homo sapiens, UniProt P00734)"
property = "Ki"
display_unit = "µM"
measured_number = 0.00046

[[record]]
compound = "N=C(N)c1ccc(N)c(CN2CC[C@H](NS(=O)(=O)c3ccc(-c4ccon4)s3)C2=O)c1"
assay_target = "Prothrombin (Homo sapiens, UniProt P00734)"
property = "Ki"
display_unit = "µM"
measured_number = 2.23

[[record]]
compound = "Cc1cccc(S(=O)(=O)N[C@@H](CCCN=C(N)N)C(=O)N2CCOCC2)c1"
assay_target = "Prothrombin (Homo sapiens, UniProt P00734)"
property = "Ki"
display_unit = "µM"
measured_number = 1.5

[[record]]
compound = "C#Cc1cc(OC2CCOCC2)cc(C(Nc2ccc(C(=N)N)cc2)C(=O)O)c1 (stereo unspecified)"
assay_target = "Prothrombin (Homo sapiens, UniProt P00734)"
property = "Ki"
display_unit = "µM"
measured_number = 4.7

[[record]]
compound = "NCCCC[C@H](NC(=O)[C@@H]1CCCN1C(=O)CC(c1ccccc1)c1ccccc1)C(=O)c1nccs1"
assay_target = "Prothrombin (Homo sapiens, UniProt P00734)"
property = "Ki"
display_unit = "µM"
measured_number = 0.204

[[record]]
compound = "C[C@H](NC(=O)CNC(=O)Nc1ccc(C(=N)N)cc1)c1ccc2ccccc2c1"
assay_target = "Prothrombin (Homo sapiens, UniProt P00734)"
property = "Ki"
display_unit = "µM"
measured_number = 3.18


(P) CC1(C)[C@@H]2C[C@H]3OB([C@H](CCCCN)NC(=O)[C@@H]4CCCN4C(=O)c4cccc(Sc5ccccc5C(F)(F)F)c4)O[C@@]3(C)[C@H]1C2
(Q) CC1(C)CNc2c(cccc2S(=O)(=O)NC(Cc2nc3ccccc3s2)C(=O)N2CCC(CCF)CC2)C1 (stereo in doubt)
API: POST /compare with P and Q ; response names the item with higher Ki. Identify your pick by its label.
Q

(1) N=C(N)c1cccc(N2CCCCN(C3CCN(S(=O)(=O)c4cccc(N)c4)CC3)C2=O)c1
(2) CC1(C)[C@@H]2C[C@H]3OB([C@H](CCCCN)NC(=O)[C@@H]4CCCN4C(=O)c4cccc(S(=O)(=O)c5ccccc5)c4)O[C@@]3(C)[C@H]1C2
Name the one with the greater Ki value, either 1 or 2 as given. Select an item and report its label.
1
(1: 2.2 µM, 2: 0.00085 µM)

(a) N=C(N)c1ccc2ncn(CC(=O)Nc3ccc(-c4ccccc4S(N)(=O)=O)cc3)c2c1
(b) Cc1ccc(NS(=O)(=O)c2ccc3c(c2)CCO3)c(=O)n1CC(=O)NCc1ccc2[nH]nc(N)c2c1
(c) N[C@H](Cc1ccc(Cl)c(Cl)c1)C(=O)N1CCC[C@H]1C(=O)NCC1CCc2n[nH]cc2C1 (stereo partly specified)
(d) N=C(N)c1cccc(N(CCCc2ccc(-c3ccccc3S(N)(=O)=O)cc2)CCOc2ccccc2)c1
Please produce an ascending ranking of these compounds based on Ki. A complete answer lists every label in the requested sequence.
b, d, c, a

(I) CCSC(=O)C(=O)C(NC(=O)[C@@H]1CC[C@H]2CN(S(=O)(=O)Cc3ccccc3)CC(=O)N21)[C@H]1CC[C@H](N)CC1 (stereo partly specified)
(II) Cc1cc2cc(NC(=N/[C@H]3CCCCN(CC(=O)N4CCCC4)C3=O)/C(C#N)=C(\O)OCCCCO)ccc2o1
Lab note: record which item had the higher Ki, I or II . API: response body contains the label of the selected item.
II

(a) CC(C)(C)[C@@H](N)C(=O)N1CCC[C@H]1C(=O)NCc1ccc(C(=N)N)cc1
(b) N=C(N)c1ccc2oc(C(=O)N3CCN(C(=O)CCCCCCCC(=O)N4CCN(C(=O)c5cc6cc(C(=N)N)ccc6o5)CC4)CC3)cc2c1
Smaller Ki value? Options are a and b Pick one and reply with its label.
a
(a: 0.15 µM, b: 230 µM)

(a) NC(=O)NCC1(C(=O)Nc2ccc(-c3ccccc3S(N)(=O)=O)cn2)CC(c2ccc(Cl)c(N)c2)=NO1 (single isomer, unassigned; (-))
(b) CC1=CC(C(=O)NC(CCCCN)C(=O)C(=O)NCCc2ccc(C(N)=O)cc2)n2c(=O)n(CC(c3ccccc3)c3ccccc3)c(=O)n2C1 (stereo unspecified)
Choose between a and b : whose measured Ki value is numerically larger? Use the label to indicate which entry you chose.
a
(a: 0.8 µM, b: 3.5e-05 µM)

(1) CC(=N)N1CCC(Oc2ccc(N(C/C=C/c3cccc(C(=N)N)c3)C(=O)c3ccc(C(=O)O)c(C(=O)O)c3)cc2C(F)(F)F)CC1
(2) NC(N)=NCCCCNC(=O)[C@@H]1CS[C@H]2CC[C@@H](N)C(=O)N21.O=C(O)C(F)(F)F
(3) CC(C)CCN(Cc1ccc2ccc(C(=N)N)cc2c1)C(=O)c1ccc2ccccc2c1
Ordering: ascending Ki. Reply with the item labels sorted in the order that was asked for.
3, 1, 2
